test system: T1, B-cat-Halo (beta-catenin HaloTag NanoBRET construct expressed in HEK293 cells) (Homo sapiens (Human), UniProt P35222 1-781)
T1 sequence: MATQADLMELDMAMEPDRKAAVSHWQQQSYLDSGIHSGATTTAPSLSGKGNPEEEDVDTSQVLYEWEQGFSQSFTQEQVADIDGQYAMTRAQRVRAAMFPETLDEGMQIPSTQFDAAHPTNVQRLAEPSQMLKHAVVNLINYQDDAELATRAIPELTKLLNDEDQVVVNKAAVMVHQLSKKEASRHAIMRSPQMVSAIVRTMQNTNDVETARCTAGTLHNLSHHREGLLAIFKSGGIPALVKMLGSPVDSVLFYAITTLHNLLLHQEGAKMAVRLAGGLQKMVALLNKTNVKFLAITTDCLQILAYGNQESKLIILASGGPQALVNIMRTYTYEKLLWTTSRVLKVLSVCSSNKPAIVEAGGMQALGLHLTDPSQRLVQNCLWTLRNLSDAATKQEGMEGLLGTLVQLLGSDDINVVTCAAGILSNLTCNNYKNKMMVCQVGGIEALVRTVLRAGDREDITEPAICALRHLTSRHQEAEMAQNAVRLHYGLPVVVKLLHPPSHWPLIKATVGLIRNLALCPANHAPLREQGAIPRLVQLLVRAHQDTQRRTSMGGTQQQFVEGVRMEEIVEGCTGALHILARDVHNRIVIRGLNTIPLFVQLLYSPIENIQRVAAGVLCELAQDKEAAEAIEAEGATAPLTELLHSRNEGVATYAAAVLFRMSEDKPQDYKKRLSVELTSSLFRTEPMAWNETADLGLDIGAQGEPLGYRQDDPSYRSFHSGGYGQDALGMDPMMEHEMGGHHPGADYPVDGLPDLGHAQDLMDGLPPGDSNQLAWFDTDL
assay method text: cell-based or functional assay
Starred links: 1 amine or outer side, 2 acyl side, 3 side chain; linkers in the order of their positions; H or OH if unused. Positions of bridges follow the written chain, without caps; N, C: chain ends. Non-standard residues stand in square brackets, D forms with d. Primed or numbered codes have the meaning given here. *: point of attachment. PyrS2″ = (S)-3-amino-1-((pent-4-en-1-yloxy)carbonyl)pyrrolidine-3-carboxylic acid (stapling residue), C=CCCCOC(=O)N1CC[C@@](N[*:1])(C(=O)[*:2])C1; B5(4) = 2,2-bis(4-pentenyl)glycine = 2-amino-2-(pent-4-en-1-yl)hept-6-enoic acid (stitching residue), C=CCCCC(CCCC=C)(N[*:1])C(=O)[*:2]; B5(5) = 2,2-bis(4-pentenyl)glycine, 2-amino-2-(pent-4-en-1-yl)hept-6-enoic acid (stitching residue), C=CCCCC(CCCC=C)(N[*:1])C(=O)[*:2]; B5(33) = 2-amino-2-(pent-4-en-1-yl)hept-6-enoic acid (bis-pentenylglycine, two olefin side chains), C=CCCCC(CCCC=C)(N[*:1])C(=O)[*:2]; PyrS2 = (S)-3-amino-1-((pent-4-en-1-yloxy)carbonyl)pyrrolidine-3-carboxylic acid, C=CCCCOC(=O)N1CC[C@@](N[*:1])(C(=O)[*:2])C1; mPEG2 = N-terminal 3-(2-methoxyethoxy)propanoic acid, COCCOCCC(=O)*; Phe(2-Cl) = N[C@@H](Cc1ccccc1Cl)C(=O)O; 2Nal = N[C@@H](Cc1ccc2ccccc2c1)C(=O)O; Bta = N[C@@H](Cc1csc2ccccc12)C(=O)O; αAllylPro = C=CC[C@@]1(C(=O)O)CCCN1; tBuAla = CC(C)(C)C[C@H](N)C(=O)O; S8 = C=CCCCCCC[C@](C)(N)C(=O)O; Propanoyl(3-OMe) = COCCC(=O)*

# binder, censoring qualifier, NanoBRET Abs IC50 (µM)
records = [
    ("{Propanoyl(3-OMe)}-[αAllylPro]D[tBuAla][B5(33)]DDAAFT[S8][Phe(2-Cl)][Bta]Q-NH2 (staple 1-4, 4-11) [I-1261]", "=", 19.8),
    ("mPEG2-[αAllylPro]D[tBuAla][B5(33)]DDAAFT[S8][Phe(2-Cl)][Bta]Q-NH2 (staple 1-4, 4-11) [I-1255]", ">", 20),
    ("Ac-[αAllylPro]D[tBuAla][B5(33)]DTAAFT[PyrS2]F[Bta]S-NH2 (staple 1-4, 4-11) [I-1263]", "=", 20),
    ("Ac-[αAllylPro]D[tBuAla][B5(5)]DTAA[2Nal]T[PyrS2″]F[Bta]S-NH2 (staple 1-4, 4-11) [I-1267]", "=", 36.9),
    ("Ac-[αAllylPro]D[tBuAla][B5(4)]DDAAFL[PyrS2″][Phe(2-Cl)][Bta]Q-NHEt (staple 1-4, 4-11) [I-1248]", "=", 29.7),
]

The reported measurements were obtained from patent US20240116985A1.
